// provenance: ChEMBL document CHEMBL1132598

# system: Corticotropin-releasing factor receptor 1 (Homo sapiens, UniProt P34998)
# Sequence (P34998 whole entry): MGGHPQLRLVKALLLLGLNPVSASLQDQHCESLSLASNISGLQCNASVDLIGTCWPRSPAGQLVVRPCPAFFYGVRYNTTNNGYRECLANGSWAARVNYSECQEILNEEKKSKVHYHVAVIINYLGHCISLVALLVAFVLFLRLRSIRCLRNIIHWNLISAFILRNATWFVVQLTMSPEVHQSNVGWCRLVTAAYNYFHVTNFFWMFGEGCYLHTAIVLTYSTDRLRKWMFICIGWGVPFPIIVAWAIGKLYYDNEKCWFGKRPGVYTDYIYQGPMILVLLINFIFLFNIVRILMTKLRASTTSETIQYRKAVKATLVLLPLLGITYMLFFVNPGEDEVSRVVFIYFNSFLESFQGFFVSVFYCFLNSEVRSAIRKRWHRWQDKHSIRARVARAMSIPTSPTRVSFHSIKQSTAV
# experimentalDetails: Binding affinity to recombinant human Corticotropin releasing factor receptor 1 (hCRF1) expressed in 293EBNA cells
pKi: −log10 of the molar value.
Outcome label depends on pKi relative to 7: at/above gives yes (1), below gives no (0).

Would you please look over these solved cases?
INSERT INTO measurements (compound, discretelabel) VALUES
  ('COCC(Cc1ccccc1)Nc1nc(C)nc2c1nnn2-c1ccc(C(C)C)cc1Br (stereo unspecified)', 'yes (1)'),
  ('COCCN(CCOC)c1cc(C)nc2c1nnn2-c1ccc(C(C)C)cc1SC', 'yes (1)'),
  ('CCCCN(CC)c1nc(C)nc2c1nnn2-c1c(Br)cc(OC)cc1OC', 'yes (1)');

Lookup: Kindly determine if pKi recorded for COCCN(CCOC)c1nc(C)nc2c1nnn2-c1c(Br)cc(OC)cc1OC is above or exactly 7.
Found: yes (1)

Lookup: Is reported pKi greater than or equal to 7 here: CCCCN(CC)c1nc(C)nc2c1ncn2-c1c(C)cc(C)cc1C
Found: yes (1)

Lookup: Evaluate CCC(CO)Nc1nc(C)nc2c1nnn2-c1ccc(C(C)C)cc1Br (stereo unspecified) : pKi at minimum 7?
Found: yes (1)

Lookup: Dear colleague, could you confirm whether CCC(COC)N(C)c1nc(C)nc2c1nnn2-c1ccc(C(C)C)cc1Br (stereo unspecified) has pKi at or above 7?
Found: yes (1)

Lookup: Hi, just wondering whether COCCCNc1nc(C)nc2c1nnn2-c1ccc(C(C)C)cc1Br shows pKi of 7 or higher.
Found: no (0)

Lookup: Item CCC(CCOC)Nc1nc(C)nc2c1ncn2-c1ccc(C(C)C)cc1Br (stereo unspecified) with pKi of 7 or above?
Found: yes (1)

Lookup: Has CCCCN(CC)c1cc(C)nc2c1nnn2-c1ccc(C(C)C)cc1SC a recorded pKi greater than or equal to 7?
Found: yes (1)

Lookup: Form field: pKi at least 7? Entry: COCCN(CCOC)c1nc(C)nc2c1nnn2-c1c(C)cc(C)nc1C
Found: no (0)

Lookup: Check if pKi >= 7 (inclusive). Item: COCC(COC)N(C)c1nc(C)nc2c1nnn2-c1ccc(C(C)C)cc1Br
Found: yes (1)

###

Can you tell me Ki for the items I'm about to list?
# system: Corticotropin-releasing factor receptor 1 (Homo sapiens, UniProt P34998)
# experimentalDetails: Binding affinity to recombinant human Corticotropin releasing factor receptor 1 (hCRF1) expressed in 293EBNA cells
Give bare numbers, in nM.

Please state Ki for every molecule in the list that follows.
1. COCC(COC)Oc1nc(C)nc2c1nnn2-c1ccc(C(C)C)cc1Br
2. CCCCC(CC)Oc1nc(C)nc2c1ncn2-c1ccc(C(C)C)cc1Br (configuration not stated)
3. CCC(CC)Nc1nc(C)nc2c1nnn2-c1c(C)cc(C)cc1C
4. CCCC(C)Nc1nc(C)nc2c1nnn2-c1c(C)cc(C)cc1C (configuration not stated)
5. CCCCC(CC)Nc1nc(C)nc2c1nnn2-c1c(C)cc(C)cc1C (configuration not stated)
6. CCCC(CC)Nc1nc(C)nc2c1ncn2-c1ccc(C(C)C)cc1Br (configuration not stated)
7. COCCN(CCOC)c1cc(C)nc2c1nnn2-c1ccc(C(C)C)cc1Br
8. Cc1nc(N2CCCCC2)c2nnn(-c3ccc(C(C)C)cc3Br)c2n1

Found:
7.1
2.9
5.7
7.1
7.6
4.4
4.7
46

Hi, could you look up Ki for each item in my list?
1. CCC(COC)Nc1nc(C)nc2c1nnn2-c1ccc(C(C)C)cc1Br (stereo in doubt; 4x)
2. CCCCN(CC)c1nc(C)nc2c1nc(C)n2-c1c(Cl)cc(OC)cc1OC
3. COCC(COC)Nc1nc(C)nc2c1nnn2-c1ccc(C(C)C)cc1Br
4. COCC(C)(C)Nc1nc(C)nc2c1nnn2-c1ccc(C(C)C)cc1Br

Found:
6.1
3.5
10.3
195
